target_entity: UniProtKB P55212
Sequence (P55212 whole entry): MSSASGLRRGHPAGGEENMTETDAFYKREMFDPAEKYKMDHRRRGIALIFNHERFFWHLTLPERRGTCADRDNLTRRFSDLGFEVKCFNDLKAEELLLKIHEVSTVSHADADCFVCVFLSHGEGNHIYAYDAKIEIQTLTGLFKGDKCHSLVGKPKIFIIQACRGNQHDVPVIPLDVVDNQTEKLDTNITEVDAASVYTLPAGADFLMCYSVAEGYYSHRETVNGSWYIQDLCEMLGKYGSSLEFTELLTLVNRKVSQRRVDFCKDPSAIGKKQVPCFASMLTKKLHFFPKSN
measurement_description: inhibition of CASP6 peptide cleavage – biochemical, VEID-R110 fluorescence, cherry-pick, dose response (AID 720632)
Active and inactive are the calls of the source.
property_label: AC50

Example cases with answers are listed next.
INSERT INTO assay_data (compound, property_label, result) VALUES
  ('CCCCNc1nc(NCc2ccccc2)nc2ccccc12', 'AC50', '15.6 µM (active)'),
  ('Cc1ccc2cc(N)ccc2n1', 'AC50', '14.2 µM (active)');

Please look at the following compound next.
Need AC50 of CCC(CNc1cc(OC)cc2cccnc12)NC1CCCCC1 (stereo not drawn) , thanks.
39 µM (active)

###

target_entity: Peroxisome proliferator-activated receptor gamma/Nuclear receptor coactivator 2 (Homo sapiens);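 further: agonist potency for raising coactivator recruitment to the receptor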
Sequence (P37231 whole entry): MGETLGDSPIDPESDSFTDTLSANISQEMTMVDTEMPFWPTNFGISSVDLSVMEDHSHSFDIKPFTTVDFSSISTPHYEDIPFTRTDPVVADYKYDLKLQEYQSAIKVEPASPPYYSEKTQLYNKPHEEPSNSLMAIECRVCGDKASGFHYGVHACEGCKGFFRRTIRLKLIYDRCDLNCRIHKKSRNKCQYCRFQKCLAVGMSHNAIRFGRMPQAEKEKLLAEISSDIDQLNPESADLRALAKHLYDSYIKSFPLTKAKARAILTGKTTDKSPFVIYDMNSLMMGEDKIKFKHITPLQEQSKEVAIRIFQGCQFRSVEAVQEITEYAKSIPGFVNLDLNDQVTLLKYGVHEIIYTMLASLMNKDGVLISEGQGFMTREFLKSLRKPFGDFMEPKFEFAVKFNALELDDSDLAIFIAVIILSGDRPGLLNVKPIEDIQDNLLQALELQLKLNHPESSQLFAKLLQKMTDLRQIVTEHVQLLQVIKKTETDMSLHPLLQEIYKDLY
Sequence (Q15596 whole entry, further chain): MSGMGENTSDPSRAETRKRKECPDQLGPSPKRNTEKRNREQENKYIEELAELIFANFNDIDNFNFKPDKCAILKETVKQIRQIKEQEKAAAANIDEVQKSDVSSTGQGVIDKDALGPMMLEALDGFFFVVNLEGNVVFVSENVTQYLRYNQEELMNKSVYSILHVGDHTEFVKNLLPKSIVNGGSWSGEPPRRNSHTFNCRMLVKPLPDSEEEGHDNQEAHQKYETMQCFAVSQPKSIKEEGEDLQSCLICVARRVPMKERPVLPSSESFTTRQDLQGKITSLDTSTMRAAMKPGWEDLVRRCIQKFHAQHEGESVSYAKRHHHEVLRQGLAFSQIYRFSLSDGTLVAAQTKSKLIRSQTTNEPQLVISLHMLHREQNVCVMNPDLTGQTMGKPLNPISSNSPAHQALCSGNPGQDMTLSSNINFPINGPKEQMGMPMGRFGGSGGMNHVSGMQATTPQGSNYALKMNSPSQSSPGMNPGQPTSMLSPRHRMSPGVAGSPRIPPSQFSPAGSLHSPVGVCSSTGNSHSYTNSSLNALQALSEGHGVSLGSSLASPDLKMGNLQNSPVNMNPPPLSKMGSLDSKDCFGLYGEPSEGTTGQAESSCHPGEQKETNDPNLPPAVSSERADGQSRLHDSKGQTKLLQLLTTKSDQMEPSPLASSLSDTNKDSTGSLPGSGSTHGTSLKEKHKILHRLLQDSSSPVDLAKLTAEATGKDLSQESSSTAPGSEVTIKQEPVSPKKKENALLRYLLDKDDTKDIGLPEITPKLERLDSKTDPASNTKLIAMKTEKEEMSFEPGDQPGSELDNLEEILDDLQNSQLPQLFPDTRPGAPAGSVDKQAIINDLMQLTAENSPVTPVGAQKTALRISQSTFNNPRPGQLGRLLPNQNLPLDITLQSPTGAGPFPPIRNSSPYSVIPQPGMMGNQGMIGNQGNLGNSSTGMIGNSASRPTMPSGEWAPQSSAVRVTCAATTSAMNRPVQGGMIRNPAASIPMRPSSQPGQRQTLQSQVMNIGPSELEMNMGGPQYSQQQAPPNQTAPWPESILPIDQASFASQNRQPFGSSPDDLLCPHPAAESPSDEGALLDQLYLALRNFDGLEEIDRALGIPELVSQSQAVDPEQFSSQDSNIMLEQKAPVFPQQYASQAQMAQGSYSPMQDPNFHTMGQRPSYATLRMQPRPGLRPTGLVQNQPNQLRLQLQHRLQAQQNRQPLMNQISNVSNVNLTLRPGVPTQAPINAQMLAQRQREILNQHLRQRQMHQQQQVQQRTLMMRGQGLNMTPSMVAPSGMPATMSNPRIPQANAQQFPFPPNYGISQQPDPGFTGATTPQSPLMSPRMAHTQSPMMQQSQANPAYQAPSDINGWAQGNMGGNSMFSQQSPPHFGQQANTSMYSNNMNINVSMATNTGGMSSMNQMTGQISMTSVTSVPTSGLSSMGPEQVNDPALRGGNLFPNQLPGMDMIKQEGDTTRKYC
Type: functional
The source made the active and inactive calls.
property_label: EC50

INSERT INTO results (compound, result) VALUES
  ('Cc1sc2nc3c(SC(C)C(=O)O)cc(C(=O)c4ccccc4O)cn3c(=O)c2c1C (centres undefined)', '25.1 µM (not active)'),
  ('COc1ccc(OC)c2c1s/c(=N\C(=O)C(C)(C)C)n2C', '> 79.4 µM (not active)'),
  ('O=C(Cc1sc(-c2ccccc2Cl)nc1-c1ccccc1)Nc1ccccc1', '6.82 µM (active)');

Consider the additional compound presented here.
Entry "Clc1cccc2sc(N3CCN(c4ccccc4)CC3)nc12" has what EC50?
> 79.4 µM (not active)

###

measurement_description: loss of viability in HepG2 cells – cell-based, CellTiter-Glo, cherry-picked, cytotoxicity control for Shn3 inhibitor project, dose response (AID 624134)
Format: functional
The source made the active and inactive calls.
property_label: AC50

Fill in: AC50 of "COc1ccc(OC)c2sc(N(CCN(C)C)C(=O)/C=C/c3cccs3)nc12" is ___
19.1 µM (active)

###

target_entity: Carboxy-terminal domain RNA polymerase II polypeptide A small phosphatase 1 (Homo sapiens)
Sequence (Q9GZU7 whole entry, the tested form may be a part): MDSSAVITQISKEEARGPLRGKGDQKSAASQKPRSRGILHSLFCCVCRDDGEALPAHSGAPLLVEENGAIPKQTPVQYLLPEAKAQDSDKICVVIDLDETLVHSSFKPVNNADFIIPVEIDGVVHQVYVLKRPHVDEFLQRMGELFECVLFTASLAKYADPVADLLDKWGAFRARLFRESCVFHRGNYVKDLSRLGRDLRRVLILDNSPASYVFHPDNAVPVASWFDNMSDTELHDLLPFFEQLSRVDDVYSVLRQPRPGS
measurement_description: CTDSP1 inhibitors, concentration-response, biochemical, absorbance readout, ultra-high-throughput screen actives (AID 540297)
Format: functional
Active and inactive are the calls of the source.
property_label: IC50

INSERT INTO assay_data (smi, target_entity, result) VALUES
  ('O=C(O)c1ccc(N2C(=O)c3cccc4c(C(=O)O)ccc(c34)C2=O)cc1', 'Carboxy-terminal domain RNA polymerase II polypeptide A small phosphatase 1 (Homo sapiens)', '3.53 µM (active)'),
  ('O=[N+]([O-])c1cc(S(=O)(=O)c2ccc(O)c([N+](=O)[O-])c2)ccc1O', 'Carboxy-terminal domain RNA polymerase II polypeptide A small phosphatase 1 (Homo sapiens)', '3.31 µM (active)'),
  ('COc1ccc(/C(C)=N/NC(=O)CNC(=O)/C=C\c2ccco2)cc1', 'Carboxy-terminal domain RNA polymerase II polypeptide A small phosphatase 1 (Homo sapiens)', '6.67 µM (active)');

May I ask what IC50 has been recorded for "O=C(CSc1nnc2scc(-c3ccccc3)n12)Nc1nsc(-c2ccccc2)n1" ?
6.59 µM (active)

###

target_entity: Protein skinhead-1 (Caenorhabditis elegans, UniProt P34707)
Sequence (P34707 whole entry): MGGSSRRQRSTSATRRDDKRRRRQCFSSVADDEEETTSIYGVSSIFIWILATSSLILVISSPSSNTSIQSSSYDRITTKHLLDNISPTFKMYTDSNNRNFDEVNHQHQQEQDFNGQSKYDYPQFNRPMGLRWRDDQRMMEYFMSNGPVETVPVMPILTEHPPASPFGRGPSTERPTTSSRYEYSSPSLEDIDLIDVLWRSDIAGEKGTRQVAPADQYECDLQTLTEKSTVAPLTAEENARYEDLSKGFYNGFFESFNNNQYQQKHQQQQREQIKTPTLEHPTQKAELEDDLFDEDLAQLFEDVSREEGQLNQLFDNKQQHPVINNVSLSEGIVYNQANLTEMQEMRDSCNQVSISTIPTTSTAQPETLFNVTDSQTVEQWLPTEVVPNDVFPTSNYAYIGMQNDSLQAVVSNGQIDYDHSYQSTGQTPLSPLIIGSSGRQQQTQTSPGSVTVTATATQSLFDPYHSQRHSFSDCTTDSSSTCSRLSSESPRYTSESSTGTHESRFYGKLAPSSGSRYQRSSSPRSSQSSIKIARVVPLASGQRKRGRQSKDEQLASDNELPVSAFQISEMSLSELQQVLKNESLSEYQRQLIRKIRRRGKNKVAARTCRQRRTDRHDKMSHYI
Format: functional
The source made the active and inactive calls.
API: response.call in active, inactive

Below, 5 molecules whose answers are already recorded.
INSERT INTO measurements (molecule, target_entity, class_assignment) VALUES
  ('CCCOc1ccc2cc(-c3ccccn3)c(=O)oc2c1', 'Protein skinhead-1 (Caenorhabditis elegans, UniProt P34707)', 'inactive'),
  ('CCOc1cc(CNC2CCCC2)cc(Cl)c1OCc1ccccc1', 'Protein skinhead-1 (Caenorhabditis elegans, UniProt P34707)', 'active'),
  ('C=CCC1CCCCC1=C(C#N)c1ccccc1 (stereo not drawn)', 'Protein skinhead-1 (Caenorhabditis elegans, UniProt P34707)', 'inactive'),
  ('COCCn1cnnc1SCC(=O)Nc1cccc(S(=O)(=O)N2CCCCC2)c1', 'Protein skinhead-1 (Caenorhabditis elegans, UniProt P34707)', 'inactive'),
  ('Cc1c(NC(=O)/C(C#N)=C/c2ccc(-c3ccc(Cl)c(Cl)c3)o2)c(=O)n(-c2ccccc2)n1C', 'Protein skinhead-1 (Caenorhabditis elegans, UniProt P34707)', 'inactive');

Answer briefly: the call reported for "N#CC1(Nc2ccc(-c3ccc(Cl)cc3)cc2)CCCC1" in this assay.
active

Outcome logged for "O=S(=O)(Nc1ccc(C(F)(F)F)cc1)c1c[nH]cn1" in this assay:
inactive

###

target_entity: Cytochrome P450 2C9 (Homo sapiens, UniProt P11712)
Sequence (P11712 whole entry): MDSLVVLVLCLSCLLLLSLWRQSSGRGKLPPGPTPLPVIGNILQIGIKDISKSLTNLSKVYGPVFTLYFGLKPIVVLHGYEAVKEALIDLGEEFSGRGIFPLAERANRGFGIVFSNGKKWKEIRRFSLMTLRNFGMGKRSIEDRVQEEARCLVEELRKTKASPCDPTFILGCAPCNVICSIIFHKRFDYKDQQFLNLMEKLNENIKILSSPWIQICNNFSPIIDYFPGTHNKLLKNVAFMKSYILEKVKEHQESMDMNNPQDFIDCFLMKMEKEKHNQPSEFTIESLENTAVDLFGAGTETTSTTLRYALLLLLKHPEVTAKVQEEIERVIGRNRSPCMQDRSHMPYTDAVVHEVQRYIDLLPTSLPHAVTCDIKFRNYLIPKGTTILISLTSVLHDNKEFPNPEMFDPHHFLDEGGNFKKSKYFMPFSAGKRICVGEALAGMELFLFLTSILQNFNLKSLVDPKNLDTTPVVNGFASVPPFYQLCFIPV
property_label: AC50

Here are 5 compounds together with their reported answers.
INSERT INTO results (compound, result) VALUES
  ('COc1cccc(C(=O)Nc2ccc(-c3nnc(-c4ccco4)o3)cc2)c1', '1.41 µM (inconclusive)'),
  ('COc1cccc(-c2cncnc2NCCc2c[nH]c3ccc(OC)cc23)c1', '0.1 µM (inconclusive)'),
  ('CC(C)CC(=O)N1CCC(N2CCN(c3ccccc3)CC2)CC1', '14.1 µM (inconclusive)'),
  ('O=C1CC(=O)C(n2cncn2)C(c2cccc(Cl)c2)C1 (stereo unspecified)', '25.1 µM (inconclusive)'),
  ('Cc1cc(C)n(C(=O)CCCCCCCCC(=O)n2nc(C)cc2C)n1', '0.251 µM (inconclusive)');

Okay, now this compound:
I have this compound here, "O=[N+]([O-])c1ccc(N2CCOCC2)nc1" , and I need its recorded AC50.
7.94 µM (inconclusive)

###

target_entity: High affinity choline transporter 1 (Homo sapiens)
Sequence (Q9GZV3 whole entry): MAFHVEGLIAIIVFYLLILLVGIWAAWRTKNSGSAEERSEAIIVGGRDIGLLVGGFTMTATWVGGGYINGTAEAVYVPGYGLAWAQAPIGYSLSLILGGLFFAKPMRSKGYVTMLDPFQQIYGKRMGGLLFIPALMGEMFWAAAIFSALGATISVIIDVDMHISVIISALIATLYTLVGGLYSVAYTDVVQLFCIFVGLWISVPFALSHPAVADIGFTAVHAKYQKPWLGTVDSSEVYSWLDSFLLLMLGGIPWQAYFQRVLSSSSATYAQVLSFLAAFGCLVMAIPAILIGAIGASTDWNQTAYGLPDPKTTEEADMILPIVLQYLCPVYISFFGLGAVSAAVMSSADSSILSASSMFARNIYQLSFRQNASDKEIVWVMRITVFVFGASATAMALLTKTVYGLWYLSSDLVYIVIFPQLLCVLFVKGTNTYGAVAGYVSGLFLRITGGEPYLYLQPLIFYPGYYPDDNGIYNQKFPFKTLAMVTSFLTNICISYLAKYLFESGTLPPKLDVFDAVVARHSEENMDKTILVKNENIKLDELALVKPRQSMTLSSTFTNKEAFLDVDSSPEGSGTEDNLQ
measurement_description: human choline transporter blockers, potency – cell-based, 5-point CRC, membrane potential dye, dose response (AID 504840)
Format: functional
Activity calls are given as the source filed them.
property_label: IC50

INSERT INTO assay_data (molecule, result) VALUES
  ('CCNC(=O)[C@H]1O[C@@H](n2cnc3c(N)nc(NCCc4ccc(CCC(=O)O)cc4)nc32)[C@H](O)[C@@H]1O', '0.915 µM (active)'),
  ('CC1CCCCC1NC(=O)c1ccc(S(=O)(=O)NCC2CCCO2)cc1 (stereo not drawn)', '12.3 µM (active)'),
  ('CCN1CCCC1CNC(=O)c1ccc2c(c1)N(Cc1cccc(Cl)c1)C(=O)c1ccccc1S2(=O)=O (stereo not drawn)', '8.64 µM (active)'),
  ('O=C1NC(c2ccccc2)=C(c2ccc3ccccc3n2)C(c2ccncc2)N1 (stereo not drawn)', '4.57 µM (active)'),
  ('CCOC(=O)c1c(NC(=O)C2C3C=CC(C3)C2C(=O)O)sc2c1CCC(CC)C2 (stereo not drawn)', '1.91 µM (active)');

Recorded IC50 for Cc1ccccc1/C=C/C(=O)NCC(=O)N1CCC(N(C)C2CCCCC2C)CC1 (stereo not drawn) , please?
14.5 µM (active)

Which value of IC50 has been reported for "COCCN(C(=O)CSc1nnc(-c2ccc(C)c(C)c2)o1)c1c(N)n(CC(C)C)c(=O)[nH]c1=O" in the records?
14.8 µM (active)

Dear colleague, I am looking for the recorded IC50 of the following molecule: "Cc1ccnc(NS(=O)(=O)c2ccc(NC(=O)c3ccc(Cl)cc3[N+](=O)[O-])cc2)n1"
13.2 µM (active)

Data origin: ChEMBL document CHEMBL1201862
